target: Cytochrome P450 2D6 (Homo sapiens, UniProt P10635); test: Inhibition of cytochrome P450 2D6; format: ADME
Sequence (P10635 whole entry): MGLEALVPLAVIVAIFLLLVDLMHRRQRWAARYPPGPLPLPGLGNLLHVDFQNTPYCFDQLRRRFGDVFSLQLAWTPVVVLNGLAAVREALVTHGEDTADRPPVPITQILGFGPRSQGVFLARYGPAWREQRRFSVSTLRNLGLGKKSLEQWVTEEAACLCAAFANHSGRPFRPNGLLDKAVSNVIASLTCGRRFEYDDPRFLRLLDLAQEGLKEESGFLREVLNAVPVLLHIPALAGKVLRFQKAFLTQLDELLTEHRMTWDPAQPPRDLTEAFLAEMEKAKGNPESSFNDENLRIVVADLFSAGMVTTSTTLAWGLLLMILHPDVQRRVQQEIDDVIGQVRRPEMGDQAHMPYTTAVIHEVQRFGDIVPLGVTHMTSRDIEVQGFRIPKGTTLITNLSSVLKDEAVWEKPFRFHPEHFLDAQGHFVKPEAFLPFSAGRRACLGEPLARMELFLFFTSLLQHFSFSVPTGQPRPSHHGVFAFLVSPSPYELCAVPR
MEASURED METRIC: IC50 (µM)
Numbers only, in µM.

Problem: Given CCN1c2ncc(CSc3cc(C)nc(C)c3)cc2C(=O)Nc2c(C)cc(Cl)nc21 , report its IC50 on Cytochrome P450 2D6 (Homo sapiens, UniProt P10635).
Result: 27

====

biological target: Cytochrome P450 2C9 (Homo sapiens); assay: Inhibition of CYP450 (Cytochrome P450) 2C9; format: ADME
Sequence (P11712 whole entry): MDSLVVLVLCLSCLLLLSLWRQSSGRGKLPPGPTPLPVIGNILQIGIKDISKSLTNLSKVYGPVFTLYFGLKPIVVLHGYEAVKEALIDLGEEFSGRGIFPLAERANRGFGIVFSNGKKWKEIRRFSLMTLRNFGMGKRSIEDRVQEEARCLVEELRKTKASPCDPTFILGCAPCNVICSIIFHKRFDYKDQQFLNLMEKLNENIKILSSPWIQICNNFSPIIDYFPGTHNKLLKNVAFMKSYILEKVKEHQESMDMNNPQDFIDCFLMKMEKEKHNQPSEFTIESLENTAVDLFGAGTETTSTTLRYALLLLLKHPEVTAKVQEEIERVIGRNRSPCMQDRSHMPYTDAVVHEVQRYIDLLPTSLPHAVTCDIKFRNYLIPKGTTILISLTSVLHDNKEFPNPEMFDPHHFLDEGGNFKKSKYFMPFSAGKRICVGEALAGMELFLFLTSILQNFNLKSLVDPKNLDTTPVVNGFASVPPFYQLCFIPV
MEASURED METRIC: pIC50
Give bare numbers, as −log10 of the molar value.

Problem: Look up pIC50 of CCN1c2ncc(CSc3cc(C)nc(C)c3)cc2C(=O)Nc2c(C)ccnc21 and report it.
Result: 5.13
